- tested.on: hCA I (Homo sapiens, UniProt P00915)
- Sequence (P00915 whole entry): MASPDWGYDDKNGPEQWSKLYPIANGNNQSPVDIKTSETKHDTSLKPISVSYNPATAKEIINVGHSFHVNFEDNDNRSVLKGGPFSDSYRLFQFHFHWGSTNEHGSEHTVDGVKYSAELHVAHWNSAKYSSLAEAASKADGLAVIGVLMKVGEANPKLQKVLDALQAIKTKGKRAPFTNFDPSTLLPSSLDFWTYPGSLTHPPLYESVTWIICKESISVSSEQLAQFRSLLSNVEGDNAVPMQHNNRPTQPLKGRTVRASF
attribute.measured: pIC50
On this scale, pIC50 is minus log10 of a concentration expressed in M (mol/L).

What does the data say about its pIC50? Entry: c1ccc(Cn2c[n+](Cc3ccccc3)c3ccccc32)cc1 [Compound 1, 1,3-dibenzylbenzimidazolium chloride]
6.94

----------
- tested.on: hCA II (Homo sapiens, UniProt P00918)
attribute.measured: pIC50
On this scale, pIC50 is minus log10 of a concentration expressed in M (mol/L).

What does the data say about its pIC50? Entry: c1ccc(Cn2c[n+](Cc3ccccc3)c3ccccc32)cc1 [Compound 1, 1,3-dibenzylbenzimidazolium chloride]
7.16

----------
- tested.on: AChE (Electrophorus electricus, UniProt O42275)
- Sequence (O42275 24-633): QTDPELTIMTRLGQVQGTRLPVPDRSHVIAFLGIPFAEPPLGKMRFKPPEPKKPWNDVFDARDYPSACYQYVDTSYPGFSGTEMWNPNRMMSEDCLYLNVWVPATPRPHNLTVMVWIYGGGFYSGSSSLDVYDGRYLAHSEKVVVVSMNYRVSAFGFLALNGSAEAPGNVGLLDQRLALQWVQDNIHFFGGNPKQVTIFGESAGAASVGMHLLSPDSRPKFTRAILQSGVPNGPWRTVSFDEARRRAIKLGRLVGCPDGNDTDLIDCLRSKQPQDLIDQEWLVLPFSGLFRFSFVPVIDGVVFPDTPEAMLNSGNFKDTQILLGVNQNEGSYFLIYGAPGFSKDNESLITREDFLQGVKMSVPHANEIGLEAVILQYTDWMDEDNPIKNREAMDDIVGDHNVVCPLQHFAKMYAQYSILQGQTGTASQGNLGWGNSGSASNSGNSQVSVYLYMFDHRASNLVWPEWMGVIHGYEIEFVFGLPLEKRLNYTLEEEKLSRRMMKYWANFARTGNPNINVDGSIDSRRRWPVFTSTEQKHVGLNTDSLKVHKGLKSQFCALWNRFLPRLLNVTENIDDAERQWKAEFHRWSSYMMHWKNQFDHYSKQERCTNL
attribute.measured: pIC50
On this scale, pIC50 is minus log10 of a concentration expressed in M (mol/L).

What does the data say about its pIC50? Entry: c1ccc(Cn2c[n+](Cc3ccccc3)c3ccccc32)cc1 [Compound 1, 1,3-dibenzylbenzimidazolium chloride]
7.06

----------
- tested.on: hCA I (Homo sapiens, UniProt P00915)
- assay.name: hCA I esterase activity inhibition assay
- Type: biochemical
attribute.measured: Ki

Which Ki is reported with hCA I (Homo sapiens, UniProt P00915) for this entry: c1ccc(Cn2c[n+](Cc3ccccc3)c3ccccc32)cc1 [Compound 1, 1,3-dibenzylbenzimidazolium chloride] ?
68.5 nM
